tested on: peptic ulcer due to pyloric ligation; test: Effect on peptic ulcer due to pyloric ligation; format: in vivo, male rats; details: 100 mg/kg, intraperitoneal, versus control
MEASURED ATTRIBUTE: Rate of suppression of ulcer

Below, each entry is followed by its recorded Rate of suppression of ulcer result.
COMPOUND: COc1cc(C2NC(=O)C(C)S2)cc(OC)c1OC (centres unmarked)
MEASURED ATTRIBUTE: Rate of suppression of ulcer
RESULT: 82.5%
//
COMPOUND: COc1ccc(C2NC(=O)C(C)S2)cc1OC (centres unmarked)
MEASURED ATTRIBUTE: Rate of suppression of ulcer
RESULT: 84.2%
//
COMPOUND: COc1ccccc1C1NC(=O)C(C)S1 (centres unmarked)
MEASURED ATTRIBUTE: Rate of suppression of ulcer
RESULT: 91.2%

Let's switch to this compound now.
The compound COc1ccc(C2NC(=O)C(C)S2)cc1 (centres unmarked) , when measured on peptic ulcer due to pyloric ligation, yielded Rate of suppression of ulcer of 90.0%

###

system: peptic ulcer due to acetic acid; experiment: Effect on peptic ulcer due to acetic acid (duodenal); assay type: in vivo, male rats; settings: 100 mg/kg, oral, 3 times a day for 10 days, versus control
MEASURED ATTRIBUTE: Rate of suppression of ulcer (%)
All answers are understood in %, so give the number only.

COMPOUND: COc1cc(C2NC(=O)C(C)S2)cc(OC)c1OC (centres unmarked)
MEASURED ATTRIBUTE: Rate of suppression of ulcer
MEASURED NUMBER: 77.5

Reported Rate of suppression of ulcer of CC(C)=CCCC(C)=CCCC(C)=CCCC(=O)OCC=C(C)CCC=C(C)C [gefarnate, reference compound] : 20.0

Reported Rate of suppression of ulcer of COc1ccc(C2NC(=O)C(C)S2)cc1OC (centres unmarked) : 70.0

Reported Rate of suppression of ulcer of COc1ccc(C2NC(=O)C(C)S2)cc1 (centres unmarked) : 81.3

Reported Rate of suppression of ulcer of COc1ccccc1C1NC(=O)C(C)S1 (centres unmarked) : 83.8

###

Assay: Acute toxicity test, oral
Design: species or system Female ICR-mice
Details: mouse, in vivo, mortality observed for a week, Litchfield-Wilcoxon
Description: Female ICR-mice of body weight of 20 to 24 g, 5 weeks after birth were used. Eight animal per group were kept in a transparent polycage at room temperature of 23°±1° C., and RH of 60 to 70%. After minutely pulverizing each one of the present compounds, the pulverized compound was suspended in an aqueous 5% sodium carboxymethylcellulose solution containing 20% of Tween-80. […]
MEASURED ATTRIBUTE: LD50 at 168 h

Below, each entry is followed by its recorded LD50 at 168 h result.
MOLECULE: COc1cc(C2NC(=O)C(C)S2)cc(OC)c1OC (stereo not shown)
MEASURED ATTRIBUTE: LD50 at 168 h
RESULT: 6400 mg/kg
//
MOLECULE: COc1ccc(C2NC(=O)C(C)S2)cc1 (stereo not shown)
MEASURED ATTRIBUTE: LD50 at 168 h
RESULT: > 8000 mg/kg
//
MOLECULE: COc1ccccc1C1NC(=O)C(C)S1 (stereo not shown)
MEASURED ATTRIBUTE: LD50 at 168 h
RESULT: > 8000 mg/kg

Let's switch to this molecule now.
Reported LD50 at 168 h of COc1ccc(C2NC(=O)C(C)S2)cc1OC (stereo not shown) : > 8000 mg/kg
